- Tested on: SVG-A cells
- PROCEDURE TEXT: Total cell number (DAPI+ events) / cytotoxicity in the JCV infectivity assay
- SETTINGS: Homo sapiens, SVG-A, read-out: % Inhibition total Cell Number @10 uM
Counter-ions that a name gives are not always drawn.
MEASURED ATTRIBUTE: inhibition at 10 µM (%)
State just the number; it will be interpreted in %.

Solved entries:
# lookup: inhibition at 10 µM of C[C@H]1CC[C@]2(NC1)O[C@H]1C[C@H]3[C@@H]4CC[C@H]5C[C@@H](O[C@@H]6O[C@H](CO)[C@H](O[C@@H]7O[C@H](CO)[C@@H](O)[C@H](O[C@@H]8OC[C@@H](O)[C@H](O)[C@H]8O)[C@H]7O[C@@H]7O[C@H](CO)[C@@H](O)[C@H](O)[C@H]7O)[C@H](O)[C@H]6O)CC[C@]5(C)[C@H]4CC[C@]3(C)[C@H]1[C@@H]2C
12

Again, but for CN(CCOc1ccc(CC2SC(=O)NC2=O)cc1)c1ccccn1 (centres unmarked)
-1

What about this molecule? c1ccc2[nH]c(-c3cscn3)nc2c1
-1

Would you mind doing Cc1c(Cl)cccc1Nc1ccccc1C(=O)O as well?
18

Let us now turn to CC(C)=CCc1c(O)cc2oc(C)cc(=O)c2c1O
-7

Next:
Entry under review: COC(=O)c1c(C)c2c(c(C)c1O)OC(=O)c1c(C)c(Cl)c(O)c(Cl)c1O2 . Reported inhibition at 10 µM?
-9

And what about the molecule COc1ccc([C@@H]2Sc3ccccc3N(CCN(C)C)C(=O)[C@@H]2OC(C)=O)cc1 [DILTIAZEM HYDROCHLORIDE] ?
-4

---

- Tested on: JCV strain Mad1/SVEΔ
- PROCEDURE TEXT: microbe, parasite or virus in culture
- Type: cell-based, JC polyomavirus (JCV)
- SETTINGS: JC polyomavirus, Glial cell, read-out: % Inhibition (total #JCV+) @10 uM
MEASURED ATTRIBUTE: inhibition at 10 µM (%)
Value expressed in %; do not type the unit.

Bench note: what inhibition at 10 µM did CC1=C(/C=C/C(C)=C/C=C/C(C)=C\C(=O)O)C(C)(C)CCC1 [ISOTRETINOIN] show?
39

Param item: O=C(O)Cc1ccccc1Nc1c(Cl)cccc1Cl [DICLOFENAC SODIUM]
44

// query: NCCOB(c1ccccc1)c1ccccc1 [AMINOETHOXYDIPHENYLBORANE]
25

Here is the next molecule: O=c1cc(-c2ccc(O)cc2)oc2ccc(O)cc12 [6,4′-DIHYDROXYFLAVONE]
18

Moving on to COc1ccc2c(c1)c(CC(=O)OCC(=O)O)c(C)n2C(=O)c1ccc(Cl)cc1 [ACEMETACIN]
32

--- query ---
Which inhibition at 10 µM is listed for OC(c1cc(C(F)(F)F)nc2c(C(F)(F)F)cccc12)C1CCCCN1 (racemic) [MEFLOQUINE] ?
66

---

- Test system: SVG-A cells
- PROCEDURE TEXT: in vitro
MEASURED ATTRIBUTE: CC50

Record request: CC50 value, item DEHYDROABIETAMIDE
> 40 µM

---

- Tested on: JCV strain Mad1/SVEΔ
- PROCEDURE TEXT: microbe, parasite or virus in culture
- Assay type: cell-based, JC polyomavirus (JCV)
- SETTINGS: JC polyomavirus, Glial cell, read-out: % Inhibition (total #JCV+) @10 uM
Binning of inhibition at 10 µM into classes: range A: < 20%; range B: ≥ 20% and < 40%; range C: ≥ 40%

Hello team, could you let me know which band the following compound falls into: c1ccc2[nH]c(-c3cscn3)nc2c1
range A

How about CC(C)=CCc1c(O)cc2oc(C)cc(=O)c2c1O ?
range B

Cool, now CN1CCCN=C1/C=C/c1cccs1 [PYRANTEL PAMOATE]
range C

Same again, this time with COc1cc2c(cc1-c1coc3c4c(c(OC)cc3c1=O)OC(C)(C)C=C4)OCO2
range B

Same read-out for CC1=CCc2c(cc3oc(C)cc(=O)c3c2O)OC1 ?
range B

Let us now turn to O=S1OCC2C(CO1)C1(Cl)C(Cl)=C(Cl)C2(Cl)C1(Cl)Cl (stereo not shown) [ENDOSULFAN]
range C

More entries:
Class for C[C@H]1C[C@H]2[C@@H]3CCC4=CC(=O)C=C[C@]4(C)[C@@]3(F)[C@@H](O)C[C@]2(C)[C@@]1(O)C(=O)CO ?
range B

// query: CN(CCOc1ccc(CC2SC(=O)NC2=O)cc1)c1ccccn1 (stereo not shown)
range B

Now the compound Nc1nc2ccc(OC(F)(F)F)cc2s1
range A

Next record, please: COc1cc(C)c2c(=O)c(-c3ccccc3)coc2c1
range B

Cc1c(Cl)cccc1Nc1ccccc1C(=O)O ?
range C

---

Examples of molecules with documented inhibition at 10 µM follow.
- Tested on: JCV strain Mad1/SVEΔ
- PROCEDURE TEXT: microbe, parasite or virus in culture
- Format: cell-based, JC polyomavirus (JCV)
- SETTINGS: JC polyomavirus, SVG-A, read-out: % Inhibition (% JCV+) @10 uM
// return numeric value only (unit: %, not printed)

Previously resolved entries follow.
Fill in: inhibition at 10 µM of COc1cc(/C=C/C(=O)N2CCC=CC2=O)cc(OC)c1OC [PIPLARTINE] is ___
27

Would you kindly repeat that for O=c1oc2ccccc2c(O)c1Cc1c(O)c2ccccc2oc1=O [DICUMAROL] ?
35

Now the same for CC(C)=CCc1c(O)cc2oc(C)cc(=O)c2c1O [PEUCENIN]
27

Also check Nc1nc2ccc(OC(F)(F)F)cc2s1 [RILUZOLE]
26

Record: O=C(O)c1ccccc1Nc1cccc(C(F)(F)F)c1 [FLUFENAMIC ACID]
26

Next record, please: Cc1nccc2c1[nH]c1ccccc12 [HARMANE]
22

Follow-up entry: OCCN(CCO)c1nc(N2CCCCC2)c2nc(N(CCO)CCO)nc(N3CCCCC3)c2n1 [DIPYRIDAMOLE]
22

COc1ccc(C(=O)c2ccccc2O)c(O)c1 [DIOXYBENZONE, 2,2′-Dihydroxy-4-methoxybenzophenone] , same question.
49

Further cases:
Please give the measured inhibition at 10 µM for this molecule: CC1=CCc2c(cc3oc(C)cc(=O)c3c2O)OC1 [PTAEROXYLIN]
22

Also check CC(=O)OCC(=O)[C@@]12OC3(CCCC3)O[C@@H]1C[C@H]1[C@@H]3CCC4=CC(=O)C=C[C@]4(C)[C@@]3(F)[C@@H](O)C[C@@]12C [AMCINONIDE]
25

Queued: O=C(O)Cc1ccccc1Nc1c(Cl)cccc1Cl [DICLOFENAC SODIUM]
31

Ok, now O=S1OCC2C(CO1)C1(Cl)C(Cl)=C(Cl)C2(Cl)C1(Cl)Cl (stereo not drawn) [ENDOSULFAN]
44

Now the molecule CN1CCCN=C1/C=C/c1cccs1 [PYRANTEL PAMOATE]
42

Entry COc1cc(C)c2c(=O)c(-c3ccccc3)coc2c1 [METHOXYVONE] please
27

Also COc1cc2c(cc1-c1coc3c4c(c(OC)cc3c1=O)OC(C)(C)C=C4)OCO2 [ICHTHYNONE] , if possible.
24

Would you kindly repeat that for CC/C(=C(/CC)c1ccc(O)cc1)c1ccc(O)cc1 [DIETHYLSTILBESTROL] ?
29

For COc1ccc2cc(CCC(C)=O)ccc2c1 [NABUMETONE] then?
23

Repeat for the following molecule: CCCCOc1cc(CC2CNC(=O)N2)ccc1OC (stereo not drawn)
42

Try Cc1c(Nc2ncccc2C(=O)O)cccc1C(F)(F)F [FLUNIXIN MEGLUMINE] next.
33

Further, for CC(=O)O[C@H]1C[C@@]2(C)[C@@H](C[C@@H](O)[C@H]3[C@@]4(C)CC[C@@H](O)[C@@H](C)[C@@H]4CC[C@@]32C)/C1=C(\CCC=C(C)C)C(=O)O [FUSIDIC ACID] ?
40

Next up: NCCOB(c1ccccc1)c1ccccc1 [AMINOETHOXYDIPHENYLBORANE]
21

What do you get for Clc1ccc(COC(Cn2ccnc2)c2ccc(Cl)cc2Cl)c(Cl)c1 (stereo not drawn) [MICONAZOLE NITRATE] ?
42

Then this molecule: C=C[C@@H]1C2=CCOC(=O)C2=CO[C@H]1O[C@@H]1O[C@H](CO)[C@@H](O)[C@H](O)[C@H]1O [GENTIOPICROSIDE]
22

Then OC(c1cc(C(F)(F)F)nc2c(C(F)(F)F)cccc12)C1CCCCN1 (racemic) [MEFLOQUINE] ?
64

---

- Test system: JCV strain Mad1/SVEΔ
- PROCEDURE TEXT: microbe, parasite or virus in culture
- Type: cell-based, JC polyomavirus (JCV)
- SETTINGS: 10 uM; SV40 transformed glial cells, Mad-1/SVEΔ JCV
Recorded measurements of % Inhibition (total #JCV+) @10 uM, one per entry
Don't forget the unit after the value.

Which % Inhibition (total #JCV+) @10 uM value belongs to C[C@H](N)CO [L-ALANINOL] ?
13%

Now the same for O=c1cc(-c2ccccc2)oc2cccc(O)c12 [PRIMULETIN]
40%

Consider the record given below.
Sample COc1cc2c(cc1-c1cc3cc4ccoc4cc3oc1=O)OCO2 [PACHYRRHIZIN] — what was its % Inhibition (total #JCV+) @10 uM?
45%
